System: epithelial sodium channel (ENaC), β subunit (FLAG-tagged β-ENaC) (Rattus norvegicus, UniProt P37089+P37090+P37091)
Sequence (P37090 whole entry): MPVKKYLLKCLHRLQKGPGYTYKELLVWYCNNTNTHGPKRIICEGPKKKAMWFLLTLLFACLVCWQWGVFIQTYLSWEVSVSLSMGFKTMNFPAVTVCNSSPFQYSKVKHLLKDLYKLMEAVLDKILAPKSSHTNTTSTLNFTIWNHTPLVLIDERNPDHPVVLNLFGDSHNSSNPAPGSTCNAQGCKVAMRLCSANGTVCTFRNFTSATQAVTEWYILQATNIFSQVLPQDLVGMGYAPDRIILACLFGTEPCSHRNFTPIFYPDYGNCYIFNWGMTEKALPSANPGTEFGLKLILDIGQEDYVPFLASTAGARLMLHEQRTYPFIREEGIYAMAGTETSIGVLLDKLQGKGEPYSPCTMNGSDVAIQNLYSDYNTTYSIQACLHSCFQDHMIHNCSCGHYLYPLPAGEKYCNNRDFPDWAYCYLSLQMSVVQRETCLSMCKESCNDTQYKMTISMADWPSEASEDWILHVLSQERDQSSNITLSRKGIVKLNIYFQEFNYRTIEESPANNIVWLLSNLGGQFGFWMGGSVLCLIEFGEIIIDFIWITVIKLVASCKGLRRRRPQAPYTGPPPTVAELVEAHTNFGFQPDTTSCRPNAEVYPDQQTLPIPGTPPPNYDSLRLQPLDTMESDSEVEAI
Sequence (P37089 whole entry): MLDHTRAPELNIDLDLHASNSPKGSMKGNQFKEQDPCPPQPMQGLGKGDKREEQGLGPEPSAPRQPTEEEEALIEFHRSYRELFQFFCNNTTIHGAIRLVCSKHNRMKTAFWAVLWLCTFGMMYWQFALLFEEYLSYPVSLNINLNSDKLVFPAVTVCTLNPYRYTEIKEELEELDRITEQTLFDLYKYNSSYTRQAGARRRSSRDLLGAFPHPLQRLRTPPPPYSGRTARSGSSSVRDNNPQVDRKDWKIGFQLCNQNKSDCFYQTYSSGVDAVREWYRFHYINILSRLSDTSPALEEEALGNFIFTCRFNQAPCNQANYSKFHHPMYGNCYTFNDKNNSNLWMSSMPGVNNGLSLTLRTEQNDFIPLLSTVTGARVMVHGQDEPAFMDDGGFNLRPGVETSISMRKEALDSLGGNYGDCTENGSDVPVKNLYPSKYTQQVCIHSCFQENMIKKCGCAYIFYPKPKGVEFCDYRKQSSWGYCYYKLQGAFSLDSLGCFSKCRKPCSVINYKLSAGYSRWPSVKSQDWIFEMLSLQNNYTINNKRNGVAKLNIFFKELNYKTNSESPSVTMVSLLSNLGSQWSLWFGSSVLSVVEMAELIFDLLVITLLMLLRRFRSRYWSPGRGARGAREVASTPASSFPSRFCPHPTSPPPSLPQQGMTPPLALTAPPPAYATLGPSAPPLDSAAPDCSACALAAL
Sequence (P37091 whole entry): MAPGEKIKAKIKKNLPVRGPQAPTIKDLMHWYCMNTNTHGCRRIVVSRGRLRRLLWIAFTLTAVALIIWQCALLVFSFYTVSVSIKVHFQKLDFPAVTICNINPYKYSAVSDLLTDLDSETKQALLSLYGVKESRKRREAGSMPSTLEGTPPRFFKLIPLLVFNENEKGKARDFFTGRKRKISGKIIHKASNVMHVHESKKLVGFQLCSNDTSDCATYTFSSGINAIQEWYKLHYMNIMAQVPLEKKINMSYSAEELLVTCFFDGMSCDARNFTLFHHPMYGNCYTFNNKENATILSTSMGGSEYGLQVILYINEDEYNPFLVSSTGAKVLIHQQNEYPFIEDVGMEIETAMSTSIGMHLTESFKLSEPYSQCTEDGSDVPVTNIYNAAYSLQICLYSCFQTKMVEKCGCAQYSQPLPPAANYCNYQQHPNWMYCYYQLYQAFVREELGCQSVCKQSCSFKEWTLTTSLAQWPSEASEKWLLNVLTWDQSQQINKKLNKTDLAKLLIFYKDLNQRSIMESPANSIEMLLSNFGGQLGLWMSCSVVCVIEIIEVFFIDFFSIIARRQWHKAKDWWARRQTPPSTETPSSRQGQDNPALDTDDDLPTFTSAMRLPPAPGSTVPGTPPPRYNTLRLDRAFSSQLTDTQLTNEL
Test Description: dose-response block of short-circuit current in MDCK monolayers
Outcome Measure: pKi
FYI, pKi means -log10 of a concentration in mol per litre.

What the record says about NC(=NCc1ccccc1)NC(=O)c1nc(Cl)c(N)nc1N : pKi is 7.74

What the record says about N=C(N)NC(=O)c1nc(Cl)c(N)nc1N [amiloride] : pKi is 7.08

* * *

System: epithelial sodium channel (ENaC), β subunit (FLAG-tagged/G525C β-ENaC) (Rattus norvegicus, UniProt P37089+P37090+P37091, P37090:G525C)
Sequence (P37090 whole entry G525C): as the sequence (P37090 whole entry) above, with G525C counted along it
Sequence (P37089 whole entry): as the sequence (P37089 whole entry) above
Sequence (P37091 whole entry): as the sequence (P37091 whole entry) above
Test Description: dose-response block of short-circuit current in MDCK monolayers
Consider the following compounds and their measured pKi readings.
FYI, pKi means -log10 of a concentration in mol per litre.

What the record says about N=C(N)NC(=O)c1nc(Cl)c(N)nc1N [amiloride] : pKi is 4.44

More entries:
What the record says about NC(=NCc1ccccc1)NC(=O)c1nc(Cl)c(N)nc1N : pKi is 5.54
